Assay: folding enthalpy; higher = less favourable; fluorescence melt of hairpins on a sequencing array, two-state fit
Settings: sodium 0.088 M
Recorded folding enthalpy determines the group label, using range 1 (below -30 kcal/mol), range 2 (-30 kcal/mol to below -20 kcal/mol), range 3 (-20 kcal/mol or more)

Recorded results for 2 sequences are shown here.
[Q] Exercise: read the entry GTCTACGAAAGTAATGAC ((((((....)))..))) and state which class it falls under.
[A] range 3

[Q] Exercise: read the entry GCTATCGAAAGATCAAGC ((((((....)))..))) and state which class it falls under.
[A] range 3

Next:
[Q] Exercise: read the entry GAATCGAAAGATTC (((((....))))) and state which class it falls under.
[A] range 2

[Q] Exercise: read the entry GATCTATGCTTAGATC ((((((....)))))) and state which class it falls under.
[A] range 1

[Q] Exercise: read the entry CGGACGGAAACGTAGCCG ((((((....)))..))) and state which class it falls under.
[A] range 2

[Q] Exercise: read the entry GAGTCGGGAAACCGACCC (.(((((....))))).) and state which class it falls under.
[A] range 3

[Q] Exercise: read the entry GCGAGAGCGAAAGCTCGC (((..(((....)))))) and state which class it falls under.
[A] range 3

----------
Test: melting temperature; fluorescence melt of hairpins on a sequencing array, two-state fit, raised by 9.35 °C to match UV melts
Settings: sodium 0.088 M
Friendly reminder: Tm below 50 °C is TRUE, at or above is FALSE.

Recorded results for 2 sequences are shown here.
[Q] Field: below-cutoff. Rule: recorded Tm strictly less than 50 °C. Subject: GGAGGATCGAAAGATTCC (((..(((....))))))
[A] TRUE

[Q] Field: below-cutoff. Rule: recorded Tm strictly less than 50 °C. Subject: CGTCCGGAAACGGCGACG ((((((....)))..)))
[A] TRUE

Now consider the entry below.
[Q] Field: below-cutoff. Rule: recorded Tm strictly less than 50 °C. Subject: GTGCAAGGAAACTTGCAC (((((((....)))))))
[A] FALSE

----------
Test: folding enthalpy; higher = less favourable; fluorescence melt of hairpins on a sequencing array, two-state fit
Settings: sodium 0.088 M
quantity: folding enthalpy (kcal/mol)
# output: bare number, implied unit kcal/mol

folding enthalpy recorded for this sequence, GCCGCGCGAAAGCCAGGC (((..((....))..))) , is -27.8

folding enthalpy recorded for this sequence, GGTGCTCGAAAGAGACC (((.(((....)))))) , is -19.4

----------
Experiment: folding enthalpy; higher = less favourable; fluorescence melt of hairpins on a sequencing array, two-state fit
Settings: sodium 0.088 M
quantity: folding enthalpy (kcal/mol)
# output: bare number, implied unit kcal/mol

Below, each entry is followed by its recorded folding enthalpy result.
folding enthalpy recorded for this sequence, GAGCACGAAAGTGGACTC ((((((....)))..))) , is -14.2

folding enthalpy recorded for this sequence, GTTCTCGAAAGAGCAAC ((((((....))).))) , is -17

folding enthalpy recorded for this sequence, GATCTCGAACGAGATC ((((((....)))))) , is -40.8

folding enthalpy recorded for this sequence, GCATCGCGAAAGCGGAGC ((..(((....)))..)) , is -16.5

folding enthalpy recorded for this sequence, GCTTGCGAAAGCATAAGC ((((((....)))..))) , is -19.4

folding enthalpy recorded for this sequence, GGAGGCGAAAGCCACTCC ((((((....)))..))) , is -12.1

folding enthalpy recorded for this sequence, GGCTTCGAAAGAAAAGCC ((((((....)))..))) , is -28

folding enthalpy recorded for this sequence, GTGTAGCGAAAGCTCCAC (((.(((....))).))) , is -31.7

folding enthalpy recorded for this sequence, GCGCAGGGAAACCTGTGC ((.((((....)))).)) , is -28

Then this sequence:
folding enthalpy recorded for this sequence, GATCTTGCGGAAGATC ((((((....)))))) , is -36
